Measured self-splicing fitness (ln), listed per entry.
# assay_details: self-splicing fitness, log relative to wild type (ln ratio); higher = more splicing; Tetrahymena group I intron in knt gene, E. coli kanamycin selection, DiMSum; sequences stand for … in CUCUCU…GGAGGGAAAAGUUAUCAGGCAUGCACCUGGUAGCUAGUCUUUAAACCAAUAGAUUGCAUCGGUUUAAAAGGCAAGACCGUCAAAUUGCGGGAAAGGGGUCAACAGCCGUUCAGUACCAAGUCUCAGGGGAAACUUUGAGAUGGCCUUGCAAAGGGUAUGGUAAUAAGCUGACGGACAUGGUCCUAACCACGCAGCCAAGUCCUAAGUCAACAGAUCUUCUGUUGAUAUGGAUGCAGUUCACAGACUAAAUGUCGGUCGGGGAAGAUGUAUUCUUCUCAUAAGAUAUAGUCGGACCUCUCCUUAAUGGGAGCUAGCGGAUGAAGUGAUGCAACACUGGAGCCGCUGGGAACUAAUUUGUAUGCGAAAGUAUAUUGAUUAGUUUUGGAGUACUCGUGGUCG;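 also: selection with 25 µg/mL kanamycin versus none on LB agar overnight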
# assay_setup: 30 °C
quantity_kind: self-splicing fitness (ln)

[[record]]
sequence_content = "CGUUAGCAAUAUUACGAAUA"
experimental_result = -1.54

[[record]]
sequence_content = "GUUUAGCAAUAUUACGGCCA"
experimental_result = -1.35

[[record]]
sequence_content = "AGUUAGCAAUAUUACGCCUG"
experimental_result = -1.74

[[record]]
sequence_content = "ACGCAGCAAUAUUACGGCGU"
experimental_result = -3.68

[[record]]
sequence_content = "UCCGAGCAAUAUUACGAUAA"
experimental_result = -2

[[record]]
sequence_content = "UGAGAGCAAUAUUACGCGCG"
experimental_result = -2.15

[[record]]
sequence_content = "ACUUAGCAAUAUUACGCGAG"
experimental_result = -1.93

[[record]]
sequence_content = "CUUCAGCAAUAUUACGACAU"
experimental_result = -3.6

[[record]]
sequence_content = "CGCGAGCAAUAUUACGUGUC"
experimental_result = -3.46

[[record]]
sequence_content = "GAAAAGCAAUAUUACGAAUG"
experimental_result = -1.89

[[record]]
sequence_content = "AAGAAGCAAUAUUACGUACG"
experimental_result = -0.925

[[record]]
sequence_content = "CAAAAGCAAUAUUACGCAAA"
experimental_result = -2.48

[[record]]
sequence_content = "ACAUAGCAAUAUUACGGGUG"
experimental_result = -1.25

[[record]]
sequence_content = "CUCUAGCAAUAUUACGAUCC"
experimental_result = -2.43

[[record]]
sequence_content = "UACAAGCAAUAUUACGUCCC"
experimental_result = -1.25

[[record]]
sequence_content = "GUACAGCAAUAUUACGACGA"
experimental_result = -1.54

[[record]]
sequence_content = "UAAAAGCAAUAUUACGAAGU"
experimental_result = -2.95

[[record]]
sequence_content = "CUGGAGCAAUAUUACGGCGG"
experimental_result = -0.649

[[record]]
sequence_content = "ACCUAGCAAUAUUACGCCGU"
experimental_result = -0.801

[[record]]
sequence_content = "ACGAAGCAAUAUUACGAGCU"
experimental_result = -1.56

[[record]]
sequence_content = "GGACAGCAAUAUUACGAAUA"
experimental_result = -1.69

[[record]]
sequence_content = "GACUAGCAAUAUUACGAAAC"
experimental_result = -1.3

[[record]]
sequence_content = "GCGGAGCAAUAUUACGGCGC"
experimental_result = -2.22

[[record]]
sequence_content = "GAUUAGCAAUAUUACGAUAG"
experimental_result = -2.37

[[record]]
sequence_content = "CUCGAGCAAUAUUACGGUGG"
experimental_result = -2.25

[[record]]
sequence_content = "GGAAAGCAAUAUUACGCACA"
experimental_result = -0.416

[[record]]
sequence_content = "UGCGAGCAAUAUUACGAUAG"
experimental_result = -3.32

[[record]]
sequence_content = "GUGAAGCAAUAUUACGCUGA"
experimental_result = -1.32

[[record]]
sequence_content = "CAUCAGCAAUAUUACGCUAA"
experimental_result = -2.1

[[record]]
sequence_content = "AAUUAGCAAUAUUACGAUAU"
experimental_result = -0.45

[[record]]
sequence_content = "UCAGAGCAAUAUUACGCUGU"
experimental_result = -2.98

[[record]]
sequence_content = "GGGUAGCAAUAUUACGGAAC"
experimental_result = -0.98

[[record]]
sequence_content = "AUAAAGCAAUAUUACGACCG"
experimental_result = -0.25

[[record]]
sequence_content = "GCUCAGCAAUAUUACGCACU"
experimental_result = 0.181


====

# assay_details: self-splicing fitness, log relative to wild type (ln ratio); higher = more splicing; Tetrahymena group I intron in knt gene, E. coli kanamycin selection, DiMSum; sequences stand for … in CUCUCU…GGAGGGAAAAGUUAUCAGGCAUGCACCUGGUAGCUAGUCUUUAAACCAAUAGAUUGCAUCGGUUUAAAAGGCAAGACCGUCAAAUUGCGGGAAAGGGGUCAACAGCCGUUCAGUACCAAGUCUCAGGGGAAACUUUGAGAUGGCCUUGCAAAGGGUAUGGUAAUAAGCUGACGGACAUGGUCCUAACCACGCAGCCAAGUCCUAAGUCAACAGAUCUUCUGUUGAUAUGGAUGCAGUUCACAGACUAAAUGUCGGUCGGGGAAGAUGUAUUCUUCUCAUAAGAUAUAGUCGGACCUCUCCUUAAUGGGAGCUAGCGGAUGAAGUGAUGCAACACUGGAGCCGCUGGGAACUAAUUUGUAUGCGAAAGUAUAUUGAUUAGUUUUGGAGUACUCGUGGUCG
# assay_setup: 30 °C
Use class 1 when the recorded self-splicing fitness (ln) is no lower than -2; use class 0 when it is lower.

[[record]]
sequence_content = "GAUUAGCAAUAUUACGACUC"
label_class = "class 1"

[[record]]
sequence_content = "GAGAAGCAAUAUUACGCGCC"
label_class = "class 1"

[[record]]
sequence_content = "UACAAGCAAUAUUACGUUUU"
label_class = "class 0"

[[record]]
sequence_content = "GGUCAGCAAUAUUACGGGAU"
label_class = "class 1"

[[record]]
sequence_content = "AUCGAGCAAUAUUACGAGGA"
label_class = "class 1"

[[record]]
sequence_content = "GCGGAGCAAUAUUACGGACC"
label_class = "class 1"

[[record]]
sequence_content = "CUCUAGCAAUAUUACGUACU"
label_class = "class 0"

[[record]]
sequence_content = "CUACAGCAAUAUUACGCAUG"
label_class = "class 1"

[[record]]
sequence_content = "CCUUAGCAAUAUUACGCCCU"
label_class = "class 1"

[[record]]
sequence_content = "AAGGAGCAAUAUUACGUCUA"
label_class = "class 1"

[[record]]
sequence_content = "UUAUAGCAAUAUUACGACAA"
label_class = "class 1"

[[record]]
sequence_content = "GAUGAGCAAUAUUACGAGAC"
label_class = "class 0"

[[record]]
sequence_content = "AAGCAGCAAUAUUACGACGC"
label_class = "class 1"

[[record]]
sequence_content = "AGCCAGCAAUAUUACGCGCU"
label_class = "class 0"

[[record]]
sequence_content = "UUGCAGCAAUAUUACGAUAA"
label_class = "class 1"

[[record]]
sequence_content = "UGUAAGCAAUAUUACGAAUG"
label_class = "class 1"

[[record]]
sequence_content = "GGACAGCAAUAUUACGACUC"
label_class = "class 1"

[[record]]
sequence_content = "AAGGAGCAAUAUUACGCUAU"
label_class = "class 0"

[[record]]
sequence_content = "GUGCAGCAAUAUUACGGAGG"
label_class = "class 0"

[[record]]
sequence_content = "GUCUAGCAAUAUUACGGAGG"
label_class = "class 0"

[[record]]
sequence_content = "ACACAGCAAUAUUACGAGUG"
label_class = "class 1"

[[record]]
sequence_content = "UUUUAGCAAUAUUACGGGGU"
label_class = "class 1"

[[record]]
sequence_content = "AGAAAGCAAUAUUACGUGAU"
label_class = "class 0"

[[record]]
sequence_content = "GAGCAGCAAUAUUACGGGCU"
label_class = "class 0"

[[record]]
sequence_content = "GACGAGCAAUAUUACGCCCA"
label_class = "class 0"

[[record]]
sequence_content = "ACACAGCAAUAUUACGCCAC"
label_class = "class 0"

[[record]]
sequence_content = "UCAAAGCAAUAUUACGUAGG"
label_class = "class 1"

[[record]]
sequence_content = "GCCUAGCAAUAUUACGCAGU"
label_class = "class 1"

[[record]]
sequence_content = "AGUUAGCAAUAUUACGCGGG"
label_class = "class 0"

[[record]]
sequence_content = "CGAGAGCAAUAUUACGCUGA"
label_class = "class 0"

[[record]]
sequence_content = "UACUAGCAAUAUUACGUUGC"
label_class = "class 0"

[[record]]
sequence_content = "GGCAAGCAAUAUUACGACCA"
label_class = "class 1"

[[record]]
sequence_content = "AGCGAGCAAUAUUACGGGCG"
label_class = "class 1"

[[record]]
sequence_content = "UUAGAGCAAUAUUACGCGCG"
label_class = "class 1"

